Data origin: PubChem BioAssay AID1745844

System: rodent lifetime carcinogenesis bioassay, tumor incidence TD50
Test: carcinogenic potency in animals, long-term in vivo studies, CPDB compilation (AID 1745844)
Details: mouse; strain B6C3F1; females; by gavage; site: palate + pharynx + tongue; lesion: squamous-cell carcinoma + squamous-cell papilloma; dosed 88 weeks; study length 104 weeks
Parameter Measured: TD50 (mg/kg/day)
Kindly provide the numeric value in mg/kg/day only, without the unit symbol.

Ask | Identify the measured TD50 of `ClCC(Cl)CCl` for rodent lifetime carcinogenesis bioassay, tumor incidence TD50.
Reply | 47

====

System: rodent lifetime carcinogenesis bioassay, tumor incidence TD50
Experiment: carcinogenic potency in animals, long-term in vivo studies, CPDB compilation (AID 1745844)
Settings: rat; strain Fischer 344; males; by gavage; site: Zymbal's gland; lesion: squamous-cell carcinoma; dosed 35 weeks; study length 52 weeks
Parameter Measured: TD50

Ask | Would you mind telling me what TD50 value was observed for `Cn1c(N)nc2c3cccnc3ccc21` ?
Reply | 0.287 mg/kg/day

====

System: rodent lifetime carcinogenesis bioassay, tumor incidence TD50
Assay: carcinogenic potency in animals, long-term in vivo studies, CPDB compilation (AID 1745844)
Settings: rat; strain Sprague-Dawley; males; by gavage; site: oral cavity; lesion: carcinoma; dosed 104 weeks; study length 123 weeks
A collection of compounds and their measured TD50
Please give a number only; it is taken to be in mg/kg/day.

Guide cases for TD50, answers given:
{"Smiles Input": "Cc1ccc(C)c(C)c1", "Measured On": "rodent lifetime carcinogenesis bioassay, tumor incidence TD50", "TD50 [mg/kg/day]": 18300}
{"Smiles Input": "CCc1ccccc1", "Measured On": "rodent lifetime carcinogenesis bioassay, tumor incidence TD50", "TD50 [mg/kg/day]": 18300}

Here's the next entry for you.
Ask | Which TD50 value is on record for `Cc1cccc(C)c1` ?
Reply | 4440

====

System: rodent lifetime carcinogenesis bioassay, tumor incidence TD50
Experiment: carcinogenic potency in animals, long-term in vivo studies, CPDB compilation (AID 1745844)
Conditions: rat; strain BD IX; males; in drinking water; site: nasal and paranasal cavity; lesion: adenocarcinoma; dosed 104 weeks; study length 104 weeks
Parameter Measured: TD50

Ask | Recorded TD50 for `C=CCN(CC=C)N=O` , please?
Reply | 46.9 mg/kg/day

====

Tested on: rodent lifetime carcinogenesis bioassay, tumor incidence TD50
Test: carcinogenic potency in animals, long-term in vivo studies, CPDB compilation (AID 1745844)
Details: rat; strain Wistar; females; in feed; site: liver; lesion: adenoma; dosed 104 weeks; study length 130 weeks
Activity calls are given as the source filed them. How the calls were made is not given here.
Parameter Measured: TD50

Ask | Given `Cc1c(N(C)CS(=O)(=O)O)c(=O)n(-c2ccccc2)n1C` , state its recorded TD50.
Reply | 33100 mg/kg/day (inactive)

====

Test system: rodent lifetime carcinogenesis bioassay, tumor incidence TD50
Test: carcinogenic potency in animals, long-term in vivo studies, CPDB compilation (AID 1745844)
Details: mouse; strain B6C3F1; females; by gavage; site: liver + thyroid gland; lesion: hepatocellular adenoma + hepatocellular carcinoma + follicular-cell adenoma + follicular-cell carcinoma; dosed 103 weeks; study length 104 weeks
Parameter Measured: TD50 (mg/kg/day)
Please reply with the bare figure in mg/kg/day and do not write the unit itself.

Ask | Item under review: CCCC(Cl)CCCC(Cl)CCC(Cl)CCC(Cl)CCC(Cl)CCCC(Cl)CCC (stereo unspecified) . Reported TD50?
Reply | 86.8

====

Tested on: rodent lifetime carcinogenesis bioassay, tumor incidence TD50
Test: carcinogenic potency in animals, long-term in vivo studies, CPDB compilation (AID 1745844)
Conditions: rat; strain Fischer 344; males; by gavage; site: urinary bladder; lesion: transitional-cell carcinoma; dosed 30 weeks; study length 112 weeks
Parameter Measured: TD50

Ask | Dear colleague, I am looking for the recorded TD50 of the following molecule: `CCCCCCCCCCCCN(C)N=O`
Reply | 0.487 mg/kg/day

====

System: rodent lifetime carcinogenesis bioassay, tumor incidence TD50
Assay: carcinogenic potency in animals, long-term in vivo studies, CPDB compilation (AID 1745844)
Conditions: rat; strain Fischer 344; females; in drinking water; site: mammary gland; lesion: fibroadenoma; dosed 91 weeks; study length 93 weeks
Parameter Measured: TD50
Form field: result (number plus unit)

Ask | Consider the molecule shown here: `COc1cc(-c2ccc(N)c(OC)c2)ccc1N` What is its recorded TD50?
Reply | 7.05 mg/kg/day

====

Tested on: rodent lifetime carcinogenesis bioassay, tumor incidence TD50
Assay: carcinogenic potency in animals, long-term in vivo studies, CPDB compilation (AID 1745844)
Details: rat; strain Sprague-Dawley; females; by gavage; site: any site (literature study); lesion: malignant tumor; dosed 52 weeks; study length 156 weeks
Parameter Measured: TD50 (mg/kg/day)
// note: answer is a bare numeric in mg/kg/day

Ask | Bench note: what TD50 did c1ccc(C2CO2)cc1 (stereo unspecified) show?
Reply | 166

====

System: rodent lifetime carcinogenesis bioassay, tumor incidence TD50
Experiment: carcinogenic potency in animals, long-term in vivo studies, CPDB compilation (AID 1745844)
Conditions: rat; strain Donryu; females; in drinking water; site: duodenum; lesion: adenocarcinoma; dosed 51 weeks; study length 60 weeks
Parameter Measured: TD50

Ask | Returns the measured TD50 for the input compound. Input: `CCOC(=O)N(CC)N=O`
Reply | 0.555 mg/kg/day

====

Tested on: rodent lifetime carcinogenesis bioassay, tumor incidence TD50
Test: carcinogenic potency in animals, long-term in vivo studies, CPDB compilation (AID 1745844)
Details: rat; strain DA (from Hannover); males; by gavage; site: urinary bladder; lesion: transitional-cell carcinoma; dosed 110 weeks; study length 110 weeks
Parameter Measured: TD50

Ask | I'd like to know its TD50. The compound in question is `C[C@@H]1Cc2c(Cl)cc(C(=O)N[C@@H](Cc3ccccc3)C(=O)O)c(O)c2C(=O)O1`
Reply | 1.18 mg/kg/day

====

Entries annotated with measured TD50
Tested on: rodent lifetime carcinogenesis bioassay, tumor incidence TD50
Test: carcinogenic potency in animals, long-term in vivo studies, CPDB compilation (AID 1745844)
Conditions: mouse; strain B6C3F1; females; by gavage; site: all sites; lesion: leukemia + lymphoma; dosed 104 weeks; study length 104 weeks
The source made the active and inactive calls. No rule for the calls is given here.

{"Smiles Input": "Clc1cc2c(cc1Cl)Oc1cc(Cl)c(Cl)cc1O2", "Reading": "0.000709 mg/kg/day"}

# ---- query compound ----
Ask | Tell me the measured TD50 of `C=C(Cl)Cl` , please.
Reply | 3.9 mg/kg/day (inactive)

====

System: rodent lifetime carcinogenesis bioassay, tumor incidence TD50
Assay: carcinogenic potency in animals, long-term in vivo studies, CPDB compilation (AID 1745844)
Conditions: rat; strain Wistar; males; inhaled; site: liver; lesion: angiosarcoma; dosed 52 weeks; study length 125 weeks
Parameter Measured: TD50

Ask | Field request: TD50 | item: `C=CCl`
Reply | 518 mg/kg/day

====

Tested on: rodent lifetime carcinogenesis bioassay, tumor incidence TD50
Experiment: carcinogenic potency in animals, long-term in vivo studies, CPDB compilation (AID 1745844)
Details: rat; strain Charles River CD (Sprague-Dawley); males; inhaled; site: any site (literature study); lesion: malignant tumor; dosed 104 weeks; study length 104 weeks
Parameter Measured: TD50 (mg/kg/day)
Please respond with the number in mg/kg/day and leave the unit unwritten.

Ask | Return reported TD50; argument: `C=CN1CCCC1=O`
Reply | 5

====

Tested on: rodent lifetime carcinogenesis bioassay, tumor incidence TD50
Experiment: carcinogenic potency in animals, long-term in vivo studies, CPDB compilation (AID 1745844)
Conditions: mouse; strain B6C3F1; males; in feed; site: all sites; lesion: lymphoma; dosed 106 weeks; study length 106 weeks
Parameter Measured: TD50

Ask | What does the data say about its TD50? Entry: `O=C1c2ccccc2-c2ccc3c4c(ccc1c24)-c1ccccc1C3=O`
Reply | 10900 mg/kg/day

====

Test system: rodent lifetime carcinogenesis bioassay, tumor incidence TD50
Test: carcinogenic potency in animals, long-term in vivo studies, CPDB compilation (AID 1745844)
Conditions: rat; strain Sprague-Dawley; females; i.p.; site: any site (literature study); lesion: several types; types named in the paper; dosed 52 weeks; study length 81 weeks
Parameter Measured: TD50 (mg/kg/day)
Value expressed in mg/kg/day; do not type the unit.

Ask | Given CC(CN1CC(=O)NC(=O)C1)N1CC(=O)NC(=O)C1 (stereo unspecified) , state its recorded TD50.
Reply | 6.48

====

Test system: rodent lifetime carcinogenesis bioassay, tumor incidence TD50
Assay: carcinogenic potency in animals, long-term in vivo studies, CPDB compilation (AID 1745844)
Conditions: rat; strain Fischer 344; males; by gavage; site: adrenal medulla; lesion: pheochromocytoma benign, bilateral + pheochromocytoma, malignant + pheochromocytoma, benign; dosed 103 weeks; study length 104 weeks
Parameter Measured: TD50 (mg/kg/day)
Just the number in mg/kg/day, nothing appended.

Ask | For the molecule shown here, `Oc1ccc(O)cc1` , give the reported TD50.
Reply | 40.4
